procedure-text: Biotransformation in vitro, microsomal stability (human)
Format: in vitro ADME
test-context: Human microsomal fraction; in mL/min/kg (unit assumed)
readout-name: CLh
Answers are plain numbers.

O=S1(=O)COc2cc(-c3ccc(OCC4CCN(c5ncc(Cl)cn5)CC4)c(F)c3)ccc21: 16.43
CC(C)(C)OC(=O)N1CCC(COc2ccc(-c3ccc4c(c3)OCS4(=O)=O)cn2)CC1: 20.66
CC(C)(C)OC(=O)N1CCC(COc2ccc(-c3ccc4c(c3)OCS4(=O)=O)cc2F)CC1: 20.44

Consider now this further compound.
// O=S1(=O)COc2cc(-c3ccc(OCC4CCN(c5ncc(Cl)cn5)CC4)nc3)ccc21 : CLh value = 16.57

* * *

procedure-text: Pharmacokinetics in vivo after single oral or intravenous administration
Parameters: species or system rat
test-context: male, Wistar, rat, plasma, iv, 10 mg/kg, rats, i.v. injection, Mean ± SD (n = 3)
readout-name: k el (s⁻¹)
Numbers only, in s⁻¹.

// O=S1(=O)COc2cc(-c3ccc(OCC4CCN(c5ncc(Cl)cn5)CC4)c(F)c3)ccc21 : k el value = 1.39e-05

* * *

procedure-text: Pharmacokinetics in vivo after single oral or intravenous administration
Design: species or system rat
test-context: male, Wistar, rat, plasma, po, 10 mg/kg, rats, oral administration, individual rat, read-out: AUC 0-t
readout-name: AUC(0-t) (ng·h/mL)
Give bare numbers, in ng·h/mL.

// O=S1(=O)COc2cc(-c3ccc(OCC4CCN(c5ncc(Cl)cn5)CC4)c(F)c3)ccc21 [ZB-16] : AUC(0-t) value = 69

* * *

procedure-text: Pharmacokinetics in vivo after single oral or intravenous administration
Set-up: species or system rat
test-context: male, Wistar, rat, plasma, iv, 10 mg/kg, rats, i.v. injection, Mean ± SD (n = 3), read-out: Vz
readout-name: Vd
Units required after the number.

// O=S1(=O)COc2cc(-c3ccc(OCC4CCN(c5ncc(Cl)cn5)CC4)c(F)c3)ccc21 : Vd value = 123 L/kg

* * *

procedure-text: Pharmacokinetics in vivo after single oral or intravenous administration
Parameters: species or system rat
test-context: male, Wistar, rat, plasma, iv, 10 mg/kg, rats, i.v. injection, individual rat
readout-name: clearance (mL/min/kg)
Numbers only, in mL/min/kg.

// O=S1(=O)COc2cc(-c3ccc(OCC4CCN(c5ncc(Cl)cn5)CC4)c(F)c3)ccc21 : clearance value = 83.3

* * *

Provide the reported ER of each item.
procedure-text: Biotransformation in vitro, microsomal stability (human)
Type: in vitro ADME
test-context: Human microsomal fraction
Give bare numbers.

Below: 3 molecules and their reported ER.
O=S1(=O)COc2cc(-c3ccc(OCC4CCN(c5ncc(Cl)cn5)CC4)c(F)c3)ccc21: 0.76
O=S1(=O)COc2cc(-c3ccc(OCC4CCN(c5ncc(Cl)cn5)CC4)nc3)ccc21: 0.76
CC(C)(C)OC(=O)N1CCC(COc2ccc(-c3ccc4c(c3)OCS4(=O)=O)cn2)CC1: 0.95

Consider now this further molecule.
// CC(C)(C)OC(=O)N1CCC(COc2ccc(-c3ccc4c(c3)OCS4(=O)=O)cc2F)CC1 : ER value = 0.94

* * *

procedure-text: Pharmacokinetics in vivo after single oral or intravenous administration
Set-up: species or system rat
test-context: male, Wistar, rat, plasma, iv, 10 mg/kg, rats, i.v. injection, individual rat
readout-name: k el (s⁻¹)
Numbers only, in s⁻¹.

// O=S1(=O)COc2cc(-c3ccc(OCC4CCN(c5ncc(Cl)cn5)CC4)c(F)c3)ccc21 : k el value = 8.33e-06

* * *

system-name: CYP2C9 (Homo sapiens)
Sequence (P11712 whole entry): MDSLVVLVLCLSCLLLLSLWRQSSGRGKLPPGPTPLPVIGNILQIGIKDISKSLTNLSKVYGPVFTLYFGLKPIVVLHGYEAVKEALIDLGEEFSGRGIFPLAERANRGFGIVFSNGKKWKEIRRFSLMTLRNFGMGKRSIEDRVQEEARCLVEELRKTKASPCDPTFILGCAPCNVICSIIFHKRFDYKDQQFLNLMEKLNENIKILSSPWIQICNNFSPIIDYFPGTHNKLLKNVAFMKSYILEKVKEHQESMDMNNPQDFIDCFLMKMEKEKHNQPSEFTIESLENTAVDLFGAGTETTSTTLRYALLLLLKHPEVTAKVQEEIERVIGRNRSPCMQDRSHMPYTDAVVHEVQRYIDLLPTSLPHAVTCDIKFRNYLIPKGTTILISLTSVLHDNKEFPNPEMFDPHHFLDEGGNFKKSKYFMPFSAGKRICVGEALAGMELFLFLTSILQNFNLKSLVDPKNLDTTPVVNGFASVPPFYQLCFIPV
readout-name: IC50

// O=S1(=O)COc2cc(-c3ccc(OCC4CCN(c5ncc(Cl)cn5)CC4)c(F)c3)ccc21 : IC50 value = > 10 µM

* * *

procedure-text: Pharmacokinetics in vivo after single oral or intravenous administration
Design: species or system rat
test-context: male, Wistar, rat, plasma, iv, 10 mg/kg, rats, i.v. injection, Mean ± SD (n = 3)
readout-name: clearance (mL/min/kg)
One number for each entry, in mL/min/kg.

// O=S1(=O)COc2cc(-c3ccc(OCC4CCN(c5ncc(Cl)cn5)CC4)c(F)c3)ccc21 [ZB-16] : clearance value = 100

* * *

procedure-text: Biotransformation in vitro, microsomal stability (mouse)
Type: in vitro ADME
test-context: liver microsomal fraction
readout-name: microsomal CLint at 0.5 μM (µL/min/mg)
One number for each entry, in µL/min/mg.

// CC(C)(C)OC(=O)N1CCC(COc2ccc(-c3ccc4c(c3)OCS4(=O)=O)cc2F)CC1 : microsomal CLint at 0.5 μM value = 324

* * *

procedure-text: Pharmacokinetics in vivo after single oral or intravenous administration
Design: species or system rat
test-context: male, Wistar, rat, plasma, po, 10 mg/kg, rats, oral administration, Mean ± SD (n = 3)
readout-name: AUC(0-inf) (ng·h/mL)
Numbers only, in ng·h/mL.

// O=S1(=O)COc2cc(-c3ccc(OCC4CCN(c5ncc(Cl)cn5)CC4)c(F)c3)ccc21 [ZB-16] : AUC(0-inf) value = 119

* * *

Provide the reported ER of each item.
procedure-text: Biotransformation in vitro, microsomal stability (rat)
Assay type: in vitro ADME
test-context: Rat microsomal fraction
Numbers only.

Below: 3 compounds and their reported ER.
CC(C)(C)OC(=O)N1CCC(COc2ccc(-c3ccc4c(c3)OCS4(=O)=O)cn2)CC1: 0.81
O=S1(=O)COc2cc(-c3ccc(OCC4CCN(c5ncc(Cl)cn5)CC4)nc3)ccc21: 0.41
CC(C)(C)OC(=O)N1CCC(COc2ccc(-c3ccc4c(c3)OCS4(=O)=O)cc2F)CC1: 0.74

Consider now this further compound.
// O=S1(=O)COc2cc(-c3ccc(OCC4CCN(c5ncc(Cl)cn5)CC4)c(F)c3)ccc21 : ER value = 0.58

* * *

Provide the reported pEC50 of each item.
system-name: human GPR119 (hGPR119) (Homo sapiens, UniProt Q8TDV5)
Construct: expressed in transfected cells; host or cells: CHO-K1 (Chinese hamster ovary)
Sequence (Q8TDV5 whole entry): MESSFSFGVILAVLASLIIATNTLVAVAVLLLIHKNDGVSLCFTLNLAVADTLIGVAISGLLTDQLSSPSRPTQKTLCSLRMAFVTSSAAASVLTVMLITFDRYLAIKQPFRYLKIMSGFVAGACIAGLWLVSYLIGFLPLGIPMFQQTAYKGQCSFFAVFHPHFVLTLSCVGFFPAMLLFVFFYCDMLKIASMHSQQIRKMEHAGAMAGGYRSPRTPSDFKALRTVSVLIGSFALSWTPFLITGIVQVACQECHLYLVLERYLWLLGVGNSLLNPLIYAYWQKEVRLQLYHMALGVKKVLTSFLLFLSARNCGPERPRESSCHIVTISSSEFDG
procedure-text: Specific (agonistic) activity in vitro, cAMP increase (Lance Ultra cAMP kit) in CHO-K1 cells expressing hGPR119
Assay type: cell-based
test-context: CHO-K1 hGPR119, cAMP; values of the text
Answers are plain numbers, as −log10 of the molar value.

CC(C)(C)OC(=O)N1CCC(COc2ccc(-c3ccc4c(c3)OCS4(=O)=O)cc2F)CC1: 8.40

Consider now this further compound.
// O=S1(=O)COc2cc(-c3ccc(OCC4CCN(c5ncc(Cl)cn5)CC4)nc3)ccc21 : pEC50 value = 7.54

* * *

procedure-text: Pharmacokinetics in vivo after single oral or intravenous administration
Parameters: species or system rat
test-context: male, Wistar, rat, plasma, po, 10 mg/kg, rats, oral administration, Mean ± SD (n = 3)
readout-name: k el (s⁻¹)
Give bare numbers, in s⁻¹.

// O=S1(=O)COc2cc(-c3ccc(OCC4CCN(c5ncc(Cl)cn5)CC4)c(F)c3)ccc21 : k el value = 1.67e-05

* * *

system-name: CYP1A2 (Homo sapiens)
Sequence (P05177 1-516): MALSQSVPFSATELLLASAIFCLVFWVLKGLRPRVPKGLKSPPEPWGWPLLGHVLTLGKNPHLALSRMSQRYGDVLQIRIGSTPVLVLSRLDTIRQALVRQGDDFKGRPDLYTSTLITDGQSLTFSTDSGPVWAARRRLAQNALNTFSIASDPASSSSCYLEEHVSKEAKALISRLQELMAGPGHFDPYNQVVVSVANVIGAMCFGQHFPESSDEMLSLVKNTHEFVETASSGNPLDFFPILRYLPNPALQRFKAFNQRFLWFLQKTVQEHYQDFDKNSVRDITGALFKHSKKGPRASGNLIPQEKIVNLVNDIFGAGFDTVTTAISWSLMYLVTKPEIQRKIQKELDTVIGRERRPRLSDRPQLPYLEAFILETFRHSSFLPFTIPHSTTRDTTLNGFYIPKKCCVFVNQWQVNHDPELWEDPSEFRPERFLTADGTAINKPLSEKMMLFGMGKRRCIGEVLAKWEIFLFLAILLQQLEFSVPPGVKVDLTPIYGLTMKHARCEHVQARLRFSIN
readout-name: IC50

O=S1(=O)COc2cc(-c3ccc(OCC4CCN(c5ncc(Cl)cn5)CC4)nc3)ccc21: > 10 µM

Consider now this further compound.
Short answer on CYP1A2 (Homo sapiens) for O=S1(=O)COc2cc(-c3ccc(OCC4CCN(c5ncc(Cl)cn5)CC4)c(F)c3)ccc21 , IC50: > 10 µM

* * *

procedure-text: physchem
test-context: pH 2, aqueous buffer, kinetic from dmso stock
readout-name: solubility (µM)
Numbers only, in µM.

// CC/C(=C(/CC)c1ccc(O)cc1)c1ccc(O)cc1 [Diethylstilbestrol, reference compound] : solubility value = 12

* * *

procedure-text: Biotransformation in vitro, microsomal stability (mouse)
Assay type: in vitro ADME
test-context: liver microsomal fraction, read-out: t1/2, min
readout-name: half-life at 0.5 μM (min)
Give bare numbers, in min.

// CC(C)(C)OC(=O)N1CCC(COc2ccc(-c3ccc4c(c3)OCS4(=O)=O)cc2F)CC1 : half-life at 0.5 μM value = 8.57
